system: EKVX NSCLC; experiment: NCI-60 one-dose screen, 48 h (100 = growth as untreated, 0 = no growth, -100 = all killed); settings: 10 µM unless noted
Compounds without any hit were thinned out: in the full panel of roughly 83,000, 20% have a hit.
experimental readout: growth (%)
Just the number please, in %, no unit attached.

Example entries and their recorded answers appear below.
- molecule: "CC[C@]1(O)CC2CN(CCc3c([nH]c4ccccc34)[C@@](C(=O)OC)(c3cc4c(cc3OC)N(C)[C@H]3[C@@](O)(C(=O)OC)[C@H](OC(C)=O)[C@]5(CC)C=CCN6CC[C@]43[C@@H]65)C2)C1 (stereo not given in full)"
  experimental readout: "growth"
  observed value: 49.6
- molecule: "CN(CC(=O)N(Cc1ccc(C2CCCCC2)cc1)c1ccc(C(=O)O)cc1)S(=O)(=O)c1c(F)c(F)c(F)c(F)c1F"
  experimental readout: "growth"
  observed value: 92.1
- molecule: "Clc1ccc(-n2cnc3c(Cl)ncnc32)cc1Cl"
  experimental readout: "growth"
  observed value: 88.5
- molecule: "Cn1cc(-c2nc(-c3c[nH]c4ncccc34)cs2)c2cccnc21"
  experimental readout: "growth"
  observed value: 50.5

Query molecule follows.
Documented growth of N#CCNc1ccccc1N : 89.6

====

tested on: SW-620 colon; assay: NCI-60 one-dose screen, 48 h (100 = growth as untreated, 0 = no growth, -100 = all killed); settings: 10 µM unless noted
About 83,000 compounds went through this panel and 20% of them were active in at least one assay; those are over-represented in the sample as a whole.
Given measured growth, output 1 (yes) if it is greater than or equal to 40% and 0 (no) if not.

- compound: "COc1ccc(/C=C2\\COc3ccc(O)c(O)c3C2=O)cc1OC"
  class assignment: "0 (no)"
- compound: "O=C(Nc1cccc2ccccc12)c1cc2c(cc1Br)OCO2"
  class assignment: "1 (yes)"
- compound: "COc1ccc2c3c(c(OCCCN(C)C)nc2c1)-c1ccc(Cl)cc1C3=O"
  class assignment: "0 (no)"
- compound: "Cn1c(N)c(N=O)c(=O)[nH]c1=O"
  class assignment: "1 (yes)"
- compound: "CSc1ccc2c(c1)N(CCC1CCCCN1C)c1ccccc1S2 (configuration not stated)"
  class assignment: "1 (yes)"

Consider the additional compound presented here.
Req: Check this compound for growth at or above 40%: CN(CCOc1ccc(CC2SC(=O)NC2=O)cc1)c1ccccn1 (configuration not stated)
Resp: 1 (yes)

====

Measured growth, listed per entry for reference.
Test system: UACC-62 melanoma
Assay: NCI-60 one-dose screen, 48 h (100 = growth as untreated, 0 = no growth, -100 = all killed)
Conditions: 10 µM unless noted
Protocol: Growth inhibition of the UACC-62 human tumor cell line is measured as a screen for anti-cancer activity. Cells are grown in 96 well plates and exposed to the test compound for 48 hours. Compounds are tested at a single concentration, which is 10^-5 M for most compounds. The reported endpoint is percent growth (GI% or GIPRCNT), where numbers from 0 - 100% represent growth inhibition, and numbers from -100% - 0 represent cell death. For example, a value of 40 represents 60% growth inhibition. […]
Compounds without any hit were thinned out: in the full panel of roughly 83,000, 20% have a hit.
Just the number please, in %, no unit attached.

Example entries and their recorded answers appear below.
- compound: "C[n+]1ccc(Nc2ccc(NC(=O)c3ccc(Nc4cc[n+](C)c5ccc(N)cc45)cc3)cc2)cc1"
  observed value: 89.2
- compound: "NC(=O)NN=C(C1CC1)C1CC1"
  observed value: 110
- compound: "O=C1Nc2ccc(F)cc2/C1=C/c1nc(-c2ccc(F)cc2)n2ccccc12"
  observed value: 97
- compound: "CN1CCN(CC(=O)Nc2nc3c(s2)Nc2cc(Cl)c(Cl)cc2NC3=O)CC1"
  observed value: 109
- compound: "NC(=O)c1ncn([C@@H]2O[C@H](CO)[C@@H](O)[C@H]2O)n1"
  observed value: 104

Documented growth of O=C(Nc1cccc(-n2cc(-c3ccncc3)c(-c3ccc(O)c(Cl)c3)n2)c1)Nc1ccc(Cl)c(C(F)(F)F)c1 : -38.9

Documented growth of Cn1cc(-c2csc(-c3cn(C)c4ncccc34)n2)c2cccnc21 : 79.4

Documented growth of COc1ccc2c(c1)C(=O)/C(=C/c1cccc(OCC(=O)c3ccccc3)c1)CC2 : 70.2
